procedure_text: Selectivity index, ratio of IC50 for cytotoxicity against HEK293 cells to IC50 for antiplasmodial activity against chloroquine-sensitive asexual blood stage Plasmodium falciparum 3D7
Assay type: toxicity, cell-based
test_context: human, read-out: Ratio IC50
readout: selectivity ratio
API doc: respond with a numeric literal and nothing else, no unit.

q: Fill in selectivity ratio for record Cl.N/C(CC(O)c1c2ccccc2cc2ccccc12)=N\c1ccc(F)cc1 (stereo unspecified)
a: 15700

----------
Catalogue of selectivity ratio values
procedure_text: Selectivity index, ratio of IC50 for cytotoxicity against human HepG2 cells to IC50 for antiplasmodial activity against chloroquine-sensitive asexual blood stage Plasmodium falciparum 3D7
Type: toxicity, cell-based
test_context: read-out: Ratio IC50
API doc: respond with a numeric literal and nothing else, no unit.

Worked examples follow.
Cl.N/C(CC(O)c1c2ccccc2cc2ccccc12)=N\c1ccc(F)cc1 (centres undefined) | 1500
COc1ccc2nccc(C(O)C/C(N)=N/c3ccc(F)cc3)c2c1 (centres undefined) | 86
N/C(CC(O)c1cc2ccccc2c2ccccc12)=N\CCc1ccccn1 (centres undefined) | 3

q: Fill in selectivity ratio for record N/C(CC(O)c1cc2ccccc2c2ccccc12)=N\c1ccc(F)cc1 (centres undefined)
a: 344

Provenance of the data: ChEMBL document CHEMBL5214895
